# METHOD_SUMMARY: in vitro
# CONDITION_DETAILS: blood
ENDPOINT_LABEL: half-life (h)

[[record]]
test_smiles = "CSCC[C@@H]1NC(=O)[C@H](N)CSSC[C@@H](C(=O)O)NC(=O)CNC(=O)[C@H](CCCNC(=N)N)NC(=O)[C@H](CC(C)C)NC(=O)[C@H](CCCNC(=N)N)NC(=O)[C@@H]2CCCN2C1=O"
quantity_unit = "h"
measured_number = 3

